Target: T1, Human NKp46 antigen for immunization, screening, and testing (Kactus, NKP-HM146) (human, UniProt O76036 22-255)
T1 construct: Bought protein; also called human NKp46 antigen protein; human NKp46 protein
T1 sequence (O76036 other isoform, or with tags, fused parts or gaps limits assumed): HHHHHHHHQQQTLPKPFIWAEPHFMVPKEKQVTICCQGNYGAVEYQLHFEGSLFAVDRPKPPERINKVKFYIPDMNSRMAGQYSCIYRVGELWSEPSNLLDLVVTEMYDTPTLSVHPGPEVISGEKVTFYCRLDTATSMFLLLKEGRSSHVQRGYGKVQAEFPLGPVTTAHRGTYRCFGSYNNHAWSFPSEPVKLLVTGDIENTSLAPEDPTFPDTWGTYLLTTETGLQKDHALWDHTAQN
Assay: SPR (Biacore 8K), antibody captured on anti-human Fc, NKp46 as analyte, 1:1 fit
Experimental: Human NKp46 was diluted in two-fold to a serial concentration (400 nM-3.125 nM), then combined for 90 s at a flow rate of 50 μL/min, and dissociated for 500 s. At the end of each round of experiments, 3 M MgCl₂ solution was used to rinse at a flow rate of 30 μL/min for 30 s, and the captured antibody was removed along with the antigen to complete the regeneration of the chip. […]
Measured log10 koff by item
MEASURED_QUANTITY: log10 koff (log10 of the value in s⁻¹)

H2-PA45 humanized antibody (antibody, V domains shown, not shown: constant region of human IgG1) VH: EVQLVESGGGLVQPGGSLRLSCAASGRTFSRLPMAWFRQAPGKGLEFVAAISWSGGSTYYADSMKGRFTISRDNSKNTAYLQMNSLRAEDTAVYYCAAVGDSAPYSATIVYTDARAYAYWGQGTLVTVSS : -2.81
H2-PA31 humanized antibody (antibody, human IgG1, V domains shown, not shown: constant region of human IgG1) VH: EVQLVESGGGLVQPGGSLRLSCAVSGRTFSRLPMGWFRQAPGKGLEFVAAISWSSSTTYYADSVKGRFTISRDNSKNTAYLQMNSLRAEDTAVYYCAAVGGSLDYSATVVYTAARAYADWGQGTLVTVSS : -3.02
H3-PC11 humanized antibody (antibody, human IgG1, V domains shown, not shown: constant region of human IgG1) VH: EVQLVESGGGLVQPGGSLRLSCAASPYSANSFSMAWFRQAPGKGREGVACIQAESGSTNVAPSVKGRFTISQDNSKNTLYLQMNSLRAEDTAVYYCAAFKRNVGGCELRPEHWRFWGQGTLVTVSS : -4.11
H2-PA27 humanized antibody (antibody, human IgG1, V domains shown, not shown: constant region of human IgG1) VH: QVQLVESGGGVVQPGRSLRLSCAASGRTESWYRMGWFRQAPGKGLEVVARISGDTNIKYYAGSVKGRFTISRDNSKNTLYLQMSSLRAEDTAVYYCAADRTGATWDYWGQGTLVTVSS : -2.67
H1-PC11 humanized antibody (antibody, human IgG1, V domains shown, not shown: constant region of human IgG1) VH: EVQLVESGGGLVQPGGSLRLSCAASPYSANSFSMAWFRQAPGKGLEGVACIQAESGSTNVAPSVKGRFTISQDNSKNTLYLQMNSLRAEDTAVYYCAAFKRNVGGCELRPEHWRFWGQGTLVTVSS : -3.51

Cited source: patent US20240141038A1
